Target: T1, human PD-L1-Fc mutant E58A (human)
T1 construct: Position 58 counts on native human PD-L1 (NP_054862.1); also called E58A mutant
T1 sequence (chain, as listed by the source E58A E58A limits assumed): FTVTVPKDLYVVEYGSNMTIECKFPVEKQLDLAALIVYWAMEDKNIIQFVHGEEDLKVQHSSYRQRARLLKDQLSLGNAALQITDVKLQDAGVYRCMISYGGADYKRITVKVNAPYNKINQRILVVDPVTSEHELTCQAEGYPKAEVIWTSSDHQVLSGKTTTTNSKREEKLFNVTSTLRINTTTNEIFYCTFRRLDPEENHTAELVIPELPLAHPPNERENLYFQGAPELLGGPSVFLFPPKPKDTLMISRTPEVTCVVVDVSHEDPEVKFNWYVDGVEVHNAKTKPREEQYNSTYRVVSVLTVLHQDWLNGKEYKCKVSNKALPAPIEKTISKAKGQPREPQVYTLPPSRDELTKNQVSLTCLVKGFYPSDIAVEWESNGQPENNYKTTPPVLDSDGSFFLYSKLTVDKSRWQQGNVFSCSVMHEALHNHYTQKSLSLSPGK
Test: ELISA on captured PD-L1-Fc, as in Example 18A
# OD450 nM of sample-2 per record follows
Give the quantity in OD450, number only.

Worked cases, answers included:
| Binder | Unit abbreviation | OD450 nM of sample-2 |
| --- | --- | --- |
| 23F11 (antibody, V domains shown, also called mouse monoclonal antibody 23F11; clone 23F11) VH: QVQLQQPGAELVKPGASVKLSCKASGYSFTTYWMHWVKQRPGQGLEWIGMIQPNSGGTKYNEKFKKKATLTVDKSSTTASMELSSLTSEDSAVYYCARGAGTVDYFDYWGQGSTLTVSS VL: DIVLTHSPVSLAVSLGQRATISCRASESVDIYGNSFMHWYQQKPGQPPKLLIYRASNLESGIPARFSGSGSRTDFTLTINPVEADDVATYYCQQSTEDPYTFGGGTKLEIK | OD450 | 0.292 |
| 26F5 (antibody, V domains shown, Mouse monoclonal from hybridoma; also called mouse monoclonal antibody 26F5) VH: QVQLQQPGAELVKPGASVKLSCKASGYTFPSYWMHWMKQRPGQGLEWIGMIQPSTSGTIYNERFKNQVTLTVDKSSSTAYMQLSSQTSEDSAVYYCARGTGTVDYFDYWGQGTTLTVSS VL: DIVLTQSPASLAVSLGQRATISCRASESVDSYGNSFIHWYQQKPGQPPKLLIHRASNLESGIPATFSGSGSRTDFTLTINPVEADDVATYYCQQSKEDPYTFGGGTKLEIK | OD450 | 0.678 |

Identify the reported OD450 nM of sample-2 for the following entry. 4B6 (antibody, V domains shown, Mouse monoclonal purified from hybridoma; also called mouse monoclonal antibody 4B6) VH: EVQLQQSGPELVKPGASVKISCKASGYVFTDYYMNWVKQSHGKSLEWIGDINPNNGGTSYNHKFKGKATVTVDKSSRTAYMELLSLTSEDSAVYYCVKWGDGPFAYWGQGTLVTVSA VL: DIVMTQSQKFMSTSVGDRVSITCKASQNVGAAVAWYQQKPGQSPKLLIYSASNRYTGVPDRFTGSGSGTDFTLTISNMQSEDLADYFCQQYSNYPTFGSGTKLGIK
1.01
